Molecular target: human DP2 receptor (Homo sapiens)
Construct: membrane preparation
Sequence (Q9Y5Y4 1-395): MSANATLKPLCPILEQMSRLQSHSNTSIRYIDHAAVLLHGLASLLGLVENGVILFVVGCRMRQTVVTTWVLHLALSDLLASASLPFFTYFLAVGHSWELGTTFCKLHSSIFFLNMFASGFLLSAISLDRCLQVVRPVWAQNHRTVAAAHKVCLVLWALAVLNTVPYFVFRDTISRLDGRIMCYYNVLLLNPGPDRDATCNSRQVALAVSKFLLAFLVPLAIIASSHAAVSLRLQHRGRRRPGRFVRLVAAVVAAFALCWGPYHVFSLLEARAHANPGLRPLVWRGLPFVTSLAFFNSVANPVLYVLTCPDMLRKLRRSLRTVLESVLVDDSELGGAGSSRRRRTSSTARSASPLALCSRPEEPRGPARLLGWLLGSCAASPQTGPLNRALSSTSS
Assay: DP2/CRTH2 radioligand binding assay using [3H]PGD2
Settings: membranes of HEK293 cells expressing recombinant human DP2, 1 nM [3H]PGD2; read-out: hDP2
pIC50: −log10 of the molar value.
measured parameter: pIC50

1) CCN(Cc1cc2ccccc2nc1-c1cc(CC(=O)O)ccc1OC)C(=O)COC: < 6.00

Consider now this further compound.
Request: State its pIC50 on human DP2 receptor (Homo sapiens): O=C(O)CCn1c2c(c3ccccc31)C[C@H](NS(=O)(=O)c1ccc(F)cc1)CC2 [Ramatroban, reference compound]
Result: 6.00 to 6.52

* * *

Biological target: human DP2 receptor (Homo sapiens)
Construct: membrane preparation
Test: DP2/CRTH2 radioligand binding assay using [3H]PGD2
Settings: membranes of HEK293 cells expressing recombinant human DP2, 1 nM [3H]PGD2; read-out: hDP2
pIC50: −log10 of the molar value.
measured parameter: pIC50

1) CCN(Cc1cc2ccccc2nc1-c1cc(CC(=O)O)ccc1OC)C(C)=O: < 6.00
2) COc1ccc(CC(=O)O)cc1-c1ncccc1CNC(=O)OCc1ccccc1: < 6.00

Request: human DP2 receptor (Homo sapiens) / pIC50 / CCN(Cc1cc2ccccc2nc1-c1cc(CC(=O)O)ccc1OC)C(=O)C1CC1 : value?
Result: 6.00 to 6.52

Request: Param readout= pIC50; system= human DP2 receptor (Homo sapiens); entry= CCC(=O)N(CC)Cc1nc2ccccc2cc1-c1cc(CC(=O)O)ccc1OC ; returns value.
Result: > 6.52

Request: Fill in the recorded pIC50 for this molecule, with human DP2 receptor (Homo sapiens) as test system: CCN(Cc1cc(C)cnc1-c1cc(CC(=O)O)ccc1OC)C(=O)CCc1ccccc1
Result: > 6.52

Request: # get_value(readout= pIC50, system= human DP2 receptor (Homo sapiens)) for COc1ccc(CC(=O)O)cc1-c1cc2ccccc2nc1CN(Cc1ccccc1)C(=O)C1CC1
Result: > 6.52

Request: Which pIC50 is reported with human DP2 receptor (Homo sapiens) for this entry: CCN(Cc1nc2ccccc2cc1-c1cc(CC(=O)O)ccc1OC)C(=O)COC ?
Result: > 6.52

Request: Request body: readout pIC50, system human DP2 receptor (Homo sapiens), query CCN(Cc1cc(C)cnc1-c1cc(CC(=O)O)ccc1OC)C(=O)C1CC1 . Return the value.
Result: 6.00 to 6.52

* * *

Target: human DP2 receptor (Homo sapiens, UniProt Q9Y5Y4)
Construct: membrane preparation
Test: DP2/CRTH2 radioligand binding assay using [3H]PGD2
Conditions: membranes of HEK293 cells expressing recombinant human DP2, 1 nM [3H]PGD2; read-out: hDP2
Description: The ability of a compound to bind to the human DP2 receptor is assessed via a radioligand binding assay using [^3H]PGD2. […] Scintillant is then added to the plates and the radioactivity retained on the filters is determined on a Packard TopCount (Perkin Elmer). Specific binding is determined as total radioactive binding minus non-specific binding in the presence of 10 μM PGD2. IC50s were determined using GraphPad prism analysis of drug titration curves.
pIC50: −log10 of the molar value.
measured parameter: pIC50

1) CCN(Cc1cc(C)cnc1-c1cc(CC(=O)O)ccc1OC)C(=O)NCc1ccccc1 [Compound 1-4]: > 6.52
2) COc1ccc(CC(=O)O)cc1-c1cc2ccccc2nc1CN(Cc1ccccc1)C(C)=O [Compound 2-7]: > 6.52

Could you now look at the following compound, please?
Request: Look up pIC50 for this compound: CCN(Cc1nc2ccccc2cc1-c1cc(CC(=O)O)ccc1OC)C(=O)C1CC1 [Compound 2-4]
Result: > 6.52
